# systemUnderTest: BaF3 (EGFR/A763insFQEA) (Homo sapiens, UniProt P00533, INS763FQEA, cells depend on it)
# Sequence (P00533 with tags, fused parts or gaps INS763FQEA): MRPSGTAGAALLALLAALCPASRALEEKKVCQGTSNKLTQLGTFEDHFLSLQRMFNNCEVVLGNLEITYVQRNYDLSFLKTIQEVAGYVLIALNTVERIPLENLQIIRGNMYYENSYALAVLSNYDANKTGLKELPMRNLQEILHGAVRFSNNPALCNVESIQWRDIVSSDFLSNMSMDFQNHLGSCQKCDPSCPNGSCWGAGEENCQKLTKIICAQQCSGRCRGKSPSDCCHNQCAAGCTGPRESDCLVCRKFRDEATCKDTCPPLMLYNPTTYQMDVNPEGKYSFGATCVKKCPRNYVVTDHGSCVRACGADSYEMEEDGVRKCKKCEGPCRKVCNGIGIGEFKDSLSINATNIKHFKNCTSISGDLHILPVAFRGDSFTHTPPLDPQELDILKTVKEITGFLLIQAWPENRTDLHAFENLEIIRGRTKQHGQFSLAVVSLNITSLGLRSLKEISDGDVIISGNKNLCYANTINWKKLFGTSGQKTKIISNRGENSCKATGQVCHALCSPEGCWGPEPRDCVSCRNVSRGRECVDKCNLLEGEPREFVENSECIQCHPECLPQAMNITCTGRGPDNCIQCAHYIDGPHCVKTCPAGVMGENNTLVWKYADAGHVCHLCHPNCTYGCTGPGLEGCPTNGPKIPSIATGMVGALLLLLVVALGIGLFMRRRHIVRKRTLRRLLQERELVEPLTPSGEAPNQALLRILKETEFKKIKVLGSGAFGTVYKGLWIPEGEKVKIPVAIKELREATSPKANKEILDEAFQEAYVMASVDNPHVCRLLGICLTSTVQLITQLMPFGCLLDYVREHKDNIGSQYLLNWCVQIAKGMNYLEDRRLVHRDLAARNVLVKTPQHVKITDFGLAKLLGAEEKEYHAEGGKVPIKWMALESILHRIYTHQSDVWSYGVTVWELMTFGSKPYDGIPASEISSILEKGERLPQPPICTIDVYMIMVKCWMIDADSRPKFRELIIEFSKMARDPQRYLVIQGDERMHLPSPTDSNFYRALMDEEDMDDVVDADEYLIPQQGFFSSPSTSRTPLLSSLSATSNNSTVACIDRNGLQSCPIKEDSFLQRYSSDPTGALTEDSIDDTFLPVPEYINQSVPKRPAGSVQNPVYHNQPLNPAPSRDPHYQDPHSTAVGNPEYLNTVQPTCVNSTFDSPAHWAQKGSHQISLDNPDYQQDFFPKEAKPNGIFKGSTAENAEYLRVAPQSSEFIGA
# procedureSummary: Test 14: EGFR exon 20 inserted A763insFQEA cell proliferation test
# Type: cell-based
# assaySetup: 72 hours, Cell Titer-Glo, read-out: Test 14 IC50
GI50 under 100 nM gets TRUE, anything at or over 100 nM gets FALSE.

Exercise: Is GI50 strictly under 100 nM for the entry C=CC(=O)Nc1cc(Nc2nccc(-c3cn(C4CC4)c4ccccc34)n2)c(OC)cc1N(C)CCN(C)C [Compound 29] ?
Solution: TRUE

Exercise: Is GI50 strictly under 100 nM for the entry `C=CC(=O)Nc1cc(Nc2nccc(-c3cn(C)c4ccc(F)cc34)n2)c(OCC)cc1N(C)CCNC` ?
Solution: FALSE

Exercise: Is GI50 strictly under 100 nM for the entry `Cc1cc(C(=O)Nc2nc3cccc(Cl)c3n2[C@@H]2CCCCN(C(=O)/C=C/CN(C)C)C2)ccn1` ?
Solution: FALSE

Exercise: Is GI50 strictly under 100 nM for the entry `C=CC(=O)Nc1cc(Nc2nccc(-c3cn(C)c4ccccc34)n2)c(OCC)cc1N(C)CCN(C)C` ?
Solution: FALSE

Exercise: Is GI50 strictly under 100 nM for the entry `C=CC(=O)Nc1cc(Nc2nccc(-c3cn(C)c4ccc(F)cc34)n2)c(OC)cc1N(C)CCN(C)C` ?
Solution: TRUE

Exercise: Is GI50 strictly under 100 nM for the entry `C=CC(=O)Nc1cc(Nc2nccc(-c3cn(C)c4ccccc34)n2)c(OCC(F)(F)F)nc1N(C)CCN(C)C` ?
Solution: TRUE

###

# systemUnderTest: BaF3 (EGFR/D770insSVD) (Homo sapiens, UniProt P00533, DUP768-770, cells depend on it)
# Construct: Test 13 IC50 (nM); other: BaF3 (EGFR/D770insSVD), 72 hours, Cell Titer-Glo
# Sequence (P00533 with tags, fused parts or gaps DUP768-770): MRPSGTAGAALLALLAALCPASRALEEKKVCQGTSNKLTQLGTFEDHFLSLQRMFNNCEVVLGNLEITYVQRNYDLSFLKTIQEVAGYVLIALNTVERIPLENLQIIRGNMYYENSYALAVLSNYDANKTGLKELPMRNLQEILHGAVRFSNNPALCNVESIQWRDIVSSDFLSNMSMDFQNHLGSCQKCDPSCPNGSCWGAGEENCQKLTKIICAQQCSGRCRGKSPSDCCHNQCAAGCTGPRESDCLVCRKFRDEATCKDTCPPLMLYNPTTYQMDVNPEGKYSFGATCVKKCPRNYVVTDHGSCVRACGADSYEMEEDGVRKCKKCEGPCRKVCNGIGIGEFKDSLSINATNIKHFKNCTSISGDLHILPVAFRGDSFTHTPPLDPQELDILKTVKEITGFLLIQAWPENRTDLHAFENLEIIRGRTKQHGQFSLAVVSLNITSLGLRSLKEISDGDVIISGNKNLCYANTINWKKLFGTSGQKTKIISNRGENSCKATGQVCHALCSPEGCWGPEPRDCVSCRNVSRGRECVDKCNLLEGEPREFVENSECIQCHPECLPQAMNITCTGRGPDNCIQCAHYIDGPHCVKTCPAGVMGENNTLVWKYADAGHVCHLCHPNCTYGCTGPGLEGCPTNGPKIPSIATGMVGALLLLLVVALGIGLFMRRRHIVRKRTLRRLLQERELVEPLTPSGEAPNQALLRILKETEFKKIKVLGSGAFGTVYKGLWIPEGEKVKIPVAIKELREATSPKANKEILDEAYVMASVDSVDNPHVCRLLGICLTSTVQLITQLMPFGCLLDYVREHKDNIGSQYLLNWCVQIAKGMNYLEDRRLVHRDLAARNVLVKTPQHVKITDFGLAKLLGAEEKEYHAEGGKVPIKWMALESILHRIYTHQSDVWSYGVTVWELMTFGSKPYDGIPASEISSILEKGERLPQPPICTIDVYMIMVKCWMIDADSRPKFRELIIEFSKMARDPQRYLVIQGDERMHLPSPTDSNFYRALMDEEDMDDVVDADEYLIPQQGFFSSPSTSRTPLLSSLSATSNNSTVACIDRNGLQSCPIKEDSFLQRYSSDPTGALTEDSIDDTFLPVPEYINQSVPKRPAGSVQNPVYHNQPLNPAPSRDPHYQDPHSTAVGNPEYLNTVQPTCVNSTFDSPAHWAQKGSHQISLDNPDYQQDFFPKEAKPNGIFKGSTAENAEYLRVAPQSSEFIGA
# procedureSummary: Test 13: EGFR exon 20 inserted D770insSVD cell proliferation test
# Type: cell-based
# assaySetup: BaF3 (EGFR/D770insSVD), 72 hours, Cell Titer-Glo; read-out: Test 13 IC50
GI50 under 100 nM gets 1, anything at or over 100 nM gets -1.

Exercise: Is GI50 strictly under 100 nM for the entry `C=CC(=O)Nc1cccc(Oc2nc(Nc3ccc(N4CCN(C)CC4)c(F)c3)nc3[nH]ccc23)c1` ?
Solution: -1

Exercise: Is GI50 strictly under 100 nM for the entry `C=CC(=O)Nc1cc(Nc2nccc(-c3cn(C)c4ccccc34)n2)c(OCC(F)(F)F)nc1N(C)CCN(C)C.CS(=O)(=O)O` ?
Solution: 1

Exercise: Is GI50 strictly under 100 nM for the entry `C=CC(=O)Nc1cc(Nc2ncnc(-n3cc(C)c4cnccc43)n2)c(OC)cc1N(C)CCN(C)C` ?
Solution: -1

Exercise: Is GI50 strictly under 100 nM for the entry `C=CC(=O)Nc1cc(Nc2nccc(-c3cn(C)c4ccc(F)cc34)n2)c(OC)cc1N(C)CCNC` ?
Solution: 1

Exercise: Is GI50 strictly under 100 nM for the entry `C=CC(=O)Nc1cc(Nc2nccc(-c3cn(C)c4ccccc34)n2)c(OCC)cc1N(C)CCNC` ?
Solution: -1

Exercise: Is GI50 strictly under 100 nM for the entry `C=CC(=O)Nc1cc(Nc2ncnc(N3CC(C)(C)c4ncccc43)n2)c(OC)cc1N(C)CCN(C)C` ?
Solution: 1

###

Can you tell me GI50 for the items I'm about to list?
# systemUnderTest: BaF3 (HER2-A775insYVMA) (Homo sapiens, UniProt P04626, DUP772-775, cells depend on it)
# Sequence (P04626 with tags, fused parts or gaps DUP772-775): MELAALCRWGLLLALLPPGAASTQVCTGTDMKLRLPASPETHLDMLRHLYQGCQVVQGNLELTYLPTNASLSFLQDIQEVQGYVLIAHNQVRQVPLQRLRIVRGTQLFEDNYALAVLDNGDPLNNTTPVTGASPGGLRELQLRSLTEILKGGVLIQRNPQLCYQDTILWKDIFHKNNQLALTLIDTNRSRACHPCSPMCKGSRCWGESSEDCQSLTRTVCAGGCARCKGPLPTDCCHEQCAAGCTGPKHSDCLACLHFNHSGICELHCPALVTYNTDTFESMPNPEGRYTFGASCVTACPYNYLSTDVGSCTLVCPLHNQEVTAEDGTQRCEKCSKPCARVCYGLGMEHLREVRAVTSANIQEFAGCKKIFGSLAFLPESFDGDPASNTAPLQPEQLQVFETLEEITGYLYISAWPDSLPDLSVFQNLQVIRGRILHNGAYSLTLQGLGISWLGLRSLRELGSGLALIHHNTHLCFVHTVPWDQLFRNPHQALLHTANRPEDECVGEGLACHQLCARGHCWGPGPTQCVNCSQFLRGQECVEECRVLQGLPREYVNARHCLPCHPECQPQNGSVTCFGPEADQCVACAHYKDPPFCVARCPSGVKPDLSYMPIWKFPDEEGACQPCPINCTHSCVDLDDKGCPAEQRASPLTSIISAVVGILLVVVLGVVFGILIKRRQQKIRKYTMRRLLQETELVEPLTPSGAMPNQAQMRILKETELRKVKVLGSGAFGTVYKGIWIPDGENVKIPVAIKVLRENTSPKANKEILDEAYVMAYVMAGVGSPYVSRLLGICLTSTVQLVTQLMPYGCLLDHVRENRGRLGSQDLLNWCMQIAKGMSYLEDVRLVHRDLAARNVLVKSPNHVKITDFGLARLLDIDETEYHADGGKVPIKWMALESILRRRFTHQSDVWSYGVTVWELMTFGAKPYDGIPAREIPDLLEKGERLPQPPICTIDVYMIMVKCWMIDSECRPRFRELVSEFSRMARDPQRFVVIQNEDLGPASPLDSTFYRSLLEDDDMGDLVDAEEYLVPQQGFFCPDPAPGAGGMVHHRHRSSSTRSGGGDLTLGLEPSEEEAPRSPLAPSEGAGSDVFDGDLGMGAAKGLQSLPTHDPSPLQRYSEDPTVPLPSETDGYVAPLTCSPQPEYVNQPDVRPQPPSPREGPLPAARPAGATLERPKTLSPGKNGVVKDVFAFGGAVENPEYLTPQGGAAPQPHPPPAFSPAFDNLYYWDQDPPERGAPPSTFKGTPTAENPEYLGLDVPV
# procedureSummary: Test 9: BaF3 (HER2-A775insYVMA) cell proliferation test
# Format: cell-based
# assaySetup: 72 hours, Cell Titer-Glo, read-out: Test 9 - IC50
Write it as a number; the unit nM goes unstated.

Exercise: Requested read-out GI50, target or system BaF3 (HER2-A775insYVMA) (Homo sapiens, UniProt P04626, DUP772-775, cells depend on it), entry C=CC(=O)Nc1cc(Nc2ncnc(Oc3ccc(Cl)c(OC)c3)n2)c(OC)cc1N(C)CCN(C)C [Example 12]
Solution: 98.2

Exercise: Requested read-out GI50, target or system BaF3 (HER2-A775insYVMA) (Homo sapiens, UniProt P04626, DUP772-775, cells depend on it), entry C=CC(=O)Nc1cc(Nc2nccc(-c3cn(C)c4ccccc34)n2)c(OC)cc1N(C)CCN(C)C [Osimertinib (AZD9291), Osimertinib, reference compound]
Solution: 61.2

Exercise: Requested read-out GI50, target or system BaF3 (HER2-A775insYVMA) (Homo sapiens, UniProt P04626, DUP772-775, cells depend on it), entry C=CC(=O)Nc1cc(Nc2ncnc(-c3cn(C)c4ccc(OC)cc34)n2)c(OC)cc1N(C)CCN(C)C [Example 8]
Solution: 21.8

Exercise: Requested read-out GI50, target or system BaF3 (HER2-A775insYVMA) (Homo sapiens, UniProt P04626, DUP772-775, cells depend on it), entry C=CC(=O)Nc1cc(Nc2ncnc(-c3cn(C)c4ccc(F)cc34)n2)c(OCC(F)(F)F)cc1N(C)CCN(C)C [Example 15]
Solution: 10.8

Exercise: Requested read-out GI50, target or system BaF3 (HER2-A775insYVMA) (Homo sapiens, UniProt P04626, DUP772-775, cells depend on it), entry C=CC(=O)Nc1cc(Nc2ncnc(-c3cn(C)c4ccc(F)cc34)n2)c(OC)cc1N(C)CCN(C)C [Example 11]
Solution: 14.2

Exercise: Requested read-out GI50, target or system BaF3 (HER2-A775insYVMA) (Homo sapiens, UniProt P04626, DUP772-775, cells depend on it), entry C=CC(=O)Nc1cc(Nc2ncnc(-c3cn(C)c4cc(Cl)c(OC)cc34)n2)c(OC)cc1N(C)CCN(C)C [Example 10]
Solution: 45.2

Exercise: Requested read-out GI50, target or system BaF3 (HER2-A775insYVMA) (Homo sapiens, UniProt P04626, DUP772-775, cells depend on it), entry C=CC(=O)Nc1cc(Nc2ncnc(-c3cn(C)c4ccc(Cl)cc34)n2)c(OC)cc1N(C)CCN(C)C [Example 9]
Solution: 13.9

Exercise: Requested read-out GI50, target or system BaF3 (HER2-A775insYVMA) (Homo sapiens, UniProt P04626, DUP772-775, cells depend on it), entry C=CC(=O)Nc1cc(Nc2ncnc(Oc3ccc(Cl)c(OC)c3)n2)c(OC(F)F)cc1N(C)CCN(C)C [Example 13]
Solution: 85.2

Exercise: Requested read-out GI50, target or system BaF3 (HER2-A775insYVMA) (Homo sapiens, UniProt P04626, DUP772-775, cells depend on it), entry C=CC(=O)Nc1cc(Nc2ncnc(-c3cn(C)c4ccc(F)cc34)n2)c(OC(F)F)cc1N(C)CCN(C)C [Example 14]
Solution: 12.4

###

# systemUnderTest: BaF3 (EGFR/V769insASV) (Homo sapiens, UniProt P00533, DUP767-769, cells depend on it)
# Sequence (P00533 with tags, fused parts or gaps DUP767-769): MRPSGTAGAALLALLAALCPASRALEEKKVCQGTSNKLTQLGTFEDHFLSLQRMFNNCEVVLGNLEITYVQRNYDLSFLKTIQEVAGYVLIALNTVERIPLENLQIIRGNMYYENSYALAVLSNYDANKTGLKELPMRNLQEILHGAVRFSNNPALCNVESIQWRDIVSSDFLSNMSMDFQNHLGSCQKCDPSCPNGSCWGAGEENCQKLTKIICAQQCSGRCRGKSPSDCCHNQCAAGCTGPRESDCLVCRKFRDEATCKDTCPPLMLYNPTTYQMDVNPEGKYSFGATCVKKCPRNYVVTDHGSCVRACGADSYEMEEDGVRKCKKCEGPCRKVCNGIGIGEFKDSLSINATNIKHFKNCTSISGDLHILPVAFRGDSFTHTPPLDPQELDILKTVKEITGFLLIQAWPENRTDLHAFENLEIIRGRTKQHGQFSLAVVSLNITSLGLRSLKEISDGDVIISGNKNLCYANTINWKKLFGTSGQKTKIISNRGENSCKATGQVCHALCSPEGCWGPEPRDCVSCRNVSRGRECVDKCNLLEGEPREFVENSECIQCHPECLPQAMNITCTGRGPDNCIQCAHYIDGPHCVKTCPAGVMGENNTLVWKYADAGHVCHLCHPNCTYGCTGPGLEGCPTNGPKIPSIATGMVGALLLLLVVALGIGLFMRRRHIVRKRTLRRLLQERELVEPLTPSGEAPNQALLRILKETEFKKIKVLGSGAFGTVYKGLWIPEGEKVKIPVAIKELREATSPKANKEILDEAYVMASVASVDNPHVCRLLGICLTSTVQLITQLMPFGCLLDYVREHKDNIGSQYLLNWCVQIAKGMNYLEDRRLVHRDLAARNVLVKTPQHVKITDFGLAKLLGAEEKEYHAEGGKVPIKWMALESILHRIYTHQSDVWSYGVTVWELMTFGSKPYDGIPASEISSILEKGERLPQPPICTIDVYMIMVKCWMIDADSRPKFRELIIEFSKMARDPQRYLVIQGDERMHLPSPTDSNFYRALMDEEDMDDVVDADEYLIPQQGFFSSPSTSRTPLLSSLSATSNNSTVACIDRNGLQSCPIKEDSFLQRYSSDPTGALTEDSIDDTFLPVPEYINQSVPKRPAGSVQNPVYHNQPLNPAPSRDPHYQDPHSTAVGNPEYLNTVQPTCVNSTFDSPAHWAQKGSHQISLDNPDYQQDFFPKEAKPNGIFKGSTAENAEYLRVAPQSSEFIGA
# procedureSummary: Test 15: EGFR exon 20 inserted V769insASV cell proliferation test
# Type: cell-based
# assaySetup: 72 hours, Cell Titer-Glo, read-out: Test 15 IC50
Kindly note that classification relies on GI50 with these boundaries: low group (below 100 nM), middle group (100 nM to below 200 nM), high group (200 nM or more)

Exercise: Which class is correct for the following compound? C=CC(=O)Nc1cc(Nc2nccc(-c3cn(C)c4ccc(F)cc34)n2)c(OC)cc1N(C)CCNC [Compound 25]
Solution: middle group

Exercise: Which class is correct for the following compound? Cc1cc(C(=O)Nc2nc3cccc(Cl)c3n2[C@@H]2CCCCN(C(=O)/C=C/CN(C)C)C2)ccn1 [Compound 39]
Solution: high group

Exercise: Which class is correct for the following compound? C=CC(=O)Nc1cc(Nc2ncnc(N3CC(C)(C)c4ncccc43)n2)c(OC)cc1N(C)CCN(C)C [Compound 17]
Solution: low group

Exercise: Which class is correct for the following compound? C=CC(=O)Nc1cc(Nc2nccc(-c3cn(C)c4ccccc34)n2)c(OC(F)F)cc1N(C)CCNC [Compound 26]
Solution: middle group

Exercise: Which class is correct for the following compound? C=CC(=O)Nc1cc(Nc2nccc(-c3cn(C)c4ccc(F)cc34)n2)c(OC(F)F)cc1N(C)CCNC [Compound 20]
Solution: middle group

Exercise: Which class is correct for the following compound? C=CC(=O)Nc1cccc(Oc2nc(Nc3ccc(N4CCN(C)CC4)cc3)nc3ccsc23)c1 [Compound 36]
Solution: high group

Exercise: Which class is correct for the following compound? C=CC(=O)Nc1cc(Nc2nccc(-c3cn(C)c4ccccc34)n2)c(OCC(F)(F)F)nc1N(C)CCN(C)C [Compound 33]
Solution: low group

Exercise: Which class is correct for the following compound? C=CC(=O)Nc1cc(Nc2nccc(-c3cn(C)c4ccccc34)n2)c(OCC)cc1N(C)CCN(C)C [Compound 23]
Solution: high group

Exercise: Which class is correct for the following compound? C=CC(=O)Nc1cc(Nc2nccc(-c3cn(C)c4ccccc34)n2)c(OCC)cc1N(C)CCNC [Compound 24]
Solution: high group

Exercise: Which class is correct for the following compound? COc1cc2ncnc(Nc3cccc(Cl)c3F)c2cc1OC(=O)N1CCN(C)C[C@H]1C [Compound 38]
Solution: high group

Exercise: Which class is correct for the following compound? C=CC(=O)Nc1cc(Nc2nccc(-c3cn(C4CC4)c4ccccc34)n2)c(OC)cc1N(C)CCN(C)C [Compound 29]
Solution: middle group

Exercise: Which class is correct for the following compound? C=CC(=O)Nc1cc(Nc2nccc(-c3cn(C4CC4)c4ccccc34)n2)c(OC)cc1N(C)CCN(C)C [Compound 30]
Solution: middle group

Exercise: Which class is correct for the following compound? C=CC(=O)Nc1cccc(Oc2nc(Nc3ccc(N4CCN(C)CC4)c(F)c3)nc3[nH]ccc23)c1 [Compound 35]
Solution: middle group
